# Target system: human TPO receptor (Homo sapiens, UniProt P40238)
# Construct: expressed in transfected cells; host or cells: BaF-B03 (murine IL-3 dependent pro-B cell line); the resulting line is BaF/hTPOR
# Sequence (P40238 26-635): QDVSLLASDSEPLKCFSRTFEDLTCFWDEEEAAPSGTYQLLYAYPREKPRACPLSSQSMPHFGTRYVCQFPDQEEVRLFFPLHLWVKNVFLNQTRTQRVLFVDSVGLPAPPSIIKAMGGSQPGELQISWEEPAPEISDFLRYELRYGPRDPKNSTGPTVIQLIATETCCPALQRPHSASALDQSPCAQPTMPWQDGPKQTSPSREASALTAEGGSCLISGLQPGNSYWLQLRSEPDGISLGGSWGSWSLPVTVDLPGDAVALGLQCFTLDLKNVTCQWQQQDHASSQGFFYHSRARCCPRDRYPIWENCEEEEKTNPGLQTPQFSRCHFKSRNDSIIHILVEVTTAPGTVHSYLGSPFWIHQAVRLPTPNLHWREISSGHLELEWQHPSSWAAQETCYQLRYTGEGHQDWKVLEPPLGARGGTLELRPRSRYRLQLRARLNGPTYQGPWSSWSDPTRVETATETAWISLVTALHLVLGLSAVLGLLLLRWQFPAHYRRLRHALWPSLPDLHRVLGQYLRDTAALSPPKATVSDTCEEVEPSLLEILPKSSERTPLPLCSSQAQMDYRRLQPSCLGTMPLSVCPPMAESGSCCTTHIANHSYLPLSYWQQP
# Measurement notes: Thrombopoietic activity: proliferation of TPO dependent BaF/hTPOR cell line (WST-1)
# Type: cell-based
# Run conditions: BaF/hTPOR cells, 20 hours incubation then WST-1 for 4 hours, absorbance at 450 nm; ED50 = half concentration of the concentration showing the maximum thrombopoietic activity
Measurement kind: pEC50
Would you please state pEC50, meaning minus log10 of the concentration in mol/L, as a bare number?

Qu. Endpoint output: pEC50 of O=C1NC(=O)/C(=C/c2ccc(C(=O)Nc3nc(-c4cccc(C5CCCCC5)c4F)cs3)cc2)S1 . Value?
Ans. 7.77

----------
# Target system: human TPO receptor (Homo sapiens, UniProt P40238)
# Construct: expressed in transfected cells; host or cells: BaF-B03 (murine IL-3 dependent pro-B cell line); the resulting line is BaF/hTPOR
# Measurement notes: Thrombopoietic activity: proliferation of TPO dependent BaF/hTPOR cell line (WST-1)
# Assay type: cell-based
# Run conditions: BaF/hTPOR cells, 20 hours incubation then WST-1 for 4 hours, absorbance at 450 nm; ED50 = half concentration of the concentration showing the maximum thrombopoietic activity
The compounds listed here are annotated with their log10 EC50.
// do not treat as linear: log10 of EC50, unit nM

Below, each entry is followed by its recorded log10 EC50 result.
O=C1NC(=O)/C(=C/c2ccc(C(=O)Nc3nc(-c4cccc(OC(F)(F)F)c4F)cs3)cc2)S1 | 1.11
O=C1NC(=O)/C(=C/c2ccc(C(=O)Nc3nc(-c4cccc(CCc5ccccc5)c4F)cs3)cc2)S1 | 1.08
CCCCc1cccc(-c2csc(NC(=O)c3ccc(/C=C4\SC(=O)NC4=O)cc3)n2)c1F | 1.00
Cc1ccc(-c2csc(NC(=O)c3ccc(/C=C4\SC(=O)NC4=O)cc3)n2)c(F)c1 | 1.85

Qu. Please provide the recorded log10 EC50 for CCOc1cccc(-c2csc(NC(=O)c3ccc(/C=C4\SC(=O)NC4=O)cc3)n2)c1F , tested on human TPO receptor (Homo sapiens, UniProt P40238).
Ans. 1.76

Qu. Would you kindly repeat that for O=C1NC(=O)/C(=C/c2ccc(C(=O)Nc3nc(-c4cccc(Cc5ccccc5)c4F)cs3)cc2)S1 ?
Ans. 1.36

Qu. Request: O=C1NC(=O)/C(=C/c2ccc(C(=O)Nc3nc(-c4cccc(-c5cccnc5)c4F)cs3)cc2)S1
Ans. 2.04

Qu. Queued: O=C1NC(=O)/C(=C/c2ccc(C(=O)Nc3nc(-c4ccc(C(F)(F)F)cc4F)cs3)cc2)S1
Ans. 1.41

Qu. Please do the same for O=C1NC(=O)/C(=C/c2ccc(C(=O)Nc3nc(-c4cc(F)ccc4F)cs3)cc2)S1 as well.
Ans. 1.93

Qu. Request: CCCc1c(Br)ccc(-c2csc(NC(=O)c3ccc(/C=C4\SC(=O)NC4=O)cc3)n2)c1F
Ans. 1.20

Qu. Would you mind doing COCCc1cccc(-c2csc(NC(=O)c3ccc(/C=C4\SC(=O)NC4=O)cc3)n2)c1F as well?
Ans. 1.57

Qu. Can you handle COC(c1cccc(-c2csc(NC(=O)c3ccc(/C=C4\SC(=O)NC4=O)cc3)n2)c1F)C(C)C (stereo not drawn) next?
Ans. 1.45
